ASSAY DETAILS: in vitro
RUN CONDITIONS: mouse, microsomes

{"COMPOUND": "COc1cc(C(O)(CCN(C)C)C(c2cc3cc(Br)ccc3nc2OC)c2ccnc(OC)c2OC)c(OC)nc1OC (stereo not drawn) [Compound 49]", "microsomal CLint, µL/min/mg": 7}
{"COMPOUND": "COc1nc2ccc(C#N)cc2cc1C(c1cccc(F)c1)C(O)(CCN(C)C)c1cncc(C)c1 (stereo not drawn) [Compound 27]", "microsomal CLint, µL/min/mg": 249}
{"COMPOUND": "COc1cccc(C(c2cc3cc(C#N)ccc3nc2OC)C(O)(CCN(C)C)c2cc(C)nc(C)c2)c1F (stereo not drawn) [Compound 55]", "microsomal CLint, µL/min/mg": 51}
{"COMPOUND": "COc1cccc(C(c2cc3cc(C#N)ccc3nc2OC)C(O)(CCN(C)C)c2cc(C)nc(C)c2)c1OC (stereo not drawn) [Compound 57]", "microsomal CLint, µL/min/mg": 7}
{"COMPOUND": "CCOc1cc(C(O)(CCN(C)C)C(c2cc(OC)nc(OC)c2)c2cc3cc(Br)ccc3nc2OC)cc(OC(C)C)n1 (stereo not drawn) [Compound 62]", "microsomal CLint, µL/min/mg": 2.3}
{"COMPOUND": "COc1nc2ccc(Br)cc2cc1C(c1cccc2c1OCO2)C(O)(CCN(C)C)c1cccnc1C (stereo not drawn) [Compound 21]", "microsomal CLint, µL/min/mg": 51}
{"COMPOUND": "COc1nc2ccc(Br)cc2cc1C(c1cccc(C)c1)C(O)(CCN(C)C)c1cccnc1C (stereo not drawn) [Compound 19]", "microsomal CLint, µL/min/mg": 71}
{"COMPOUND": "COc1nc2ccc(Br)cc2cc1C(c1cccc2c1OCO2)C(O)(CCN(C)C)c1cccnc1OC (stereo not drawn) [Compound 41]", "microsomal CLint, µL/min/mg": 19}
{"COMPOUND": "COc1nc2ccc(Br)cc2cc1C(c1cccc(C)c1)C(O)(CCN(C)C)c1cccnc1OC (stereo not drawn) [Compound 39]", "microsomal CLint, µL/min/mg": 20}

Source of measurements: paper PMC6467542
